METHOD: Nuclear factor erythroid 2-related factor 2/antioxidant responsive element (Nrf2/ARE) small molecule agonists: qHTS cell viability counter screen in human keratinocytes (AID 1919968); further: nearly all actives have a fitted effect of over 55% in size
RUN PARAMETERS: KeratinoSens HaCaT ARE cells viability, CellTiter-Fluor, 24 h; series mostly up to 92.4 µM
Inconclusive results are not listed. Activity calls are given as the source filed them. The call rests on the fitted dose curve; in most records, active means well fitted cell-killing curve with a large enough effect in the repeat runs; inconclusive means weak or mixed curves, or effect the other way; inactive means flat fitted curve, though single readings scatter.
Choose one outcome from this list and give only that: active, inactive

Example entries and their recorded answers appear below.
[[record]]
molecule = "Cn1cnc2c(=O)[nH]c(N)nc21"
category = "inactive"

[[record]]
molecule = "COC(=O)c1ccccc1OC"
category = "inactive"

[[record]]
molecule = "CCOC(=O)/C=C/c1ccccc1"
category = "inactive"

[[record]]
molecule = "O=C(Nc1ccc2c(c1)Cc1ccccc1-2)C(F)(F)F"
category = "inactive"

[[record]]
molecule = "COC(=O)C(C)=O"
category = "inactive"


Test call for this molecule, please: C/C(=C\c1ccc(C(=O)O)cc1)c1ccc2c(c1)C(C)(C)CCC2(C)C
inactive

Test call for this molecule, please: CC1(C)CC(=O)CC(C)(C)N1
inactive

Test call for this molecule, please: CCCC(=O)OCCC(C)CCC=C(C)C (stereo not drawn)
inactive

Test call for this molecule, please: Cc1cc(C)c(/C=C2\C(=O)Nc3ccccc32)[nH]1
inactive

Test call for this molecule, please: COC(=O)/C=C(\C)CCC=C(C)C
inactive

Test call for this molecule, please: COc1cc(-c2ccc(=O)[nH]n2)ccc1OC(F)F
inactive

Test call for this molecule, please: O=C(OCC(COC(=O)c1cccnc1)(COC(=O)c1cccnc1)COC(=O)c1cccnc1)c1cccnc1
inactive

Test call for this molecule, please: C=C1c2cccc(O)c2C(O)=C2C(=O)[C@]3(O)C(O)=C(C(N)=O)C(=O)[C@@H](N(C)C)[C@@H]3[C@@H](O)[C@H]12
inactive

Test call for this molecule, please: NC(=O)N1C(=O)C(C(=O)c2cc(Cl)cs2)c2cc(F)c(Cl)cc21 (stereo not drawn)
active

Test call for this molecule, please: C[N+](C)(C)CCOC(N)=O
inactive

Test call for this molecule, please: Cc1cc(O)c(C(C)C)cc1Cl
inactive

Test call for this molecule, please: NCCN1CCOCC1
inactive

Test call for this molecule, please: CCCNCCC
inactive

Test call for this molecule, please: CC(=O)c1ccc[nH]1
inactive

Test call for this molecule, please: N[C@@H]1CONC1=O
inactive

Test call for this molecule, please: NC(=O)c1cc[n+](CC2=C(C(=O)[O-])N3C(=O)[C@@H](NC(=O)Cc4cccs4)[C@H]3SC2)cc1
inactive

Test call for this molecule, please: CC1=C(CC(=O)O)c2cc(F)ccc2/C1=C\c1ccc(S(C)(=O)=O)cc1
inactive

----------
METHOD: Nuclear factor erythroid 2-related factor 2/antioxidant responsive element (Nrf2/ARE) small molecule agonists: qHTS cell viability counter screen in human keratinocytes (AID 1919968); further: nearly all actives have a fitted effect of over 55% in size; further: potency means the concentration at half of the fitted maximal effect
RUN PARAMETERS: KeratinoSens HaCaT ARE cells viability, CellTiter-Fluor, 24 h; series mostly up to 92.4 µM
Records with an inconclusive call do not appear. Calls of active or inactive are those of the source. Calls follow the shape of the dose curve; as a rule, active = well fitted cell-killing curve with a large enough effect in the repeat runs; inconclusive = weak or mixed curves, or effect the other way; inactive = flat fitted curve, though single readings scatter.
RECORDED ENDPOINT: Potency

// solved cases for Potency follow
[[record]]
compound = "Cc1ccccc1S"
result = "inactive"

[[record]]
compound = "COc1ccc(OC)c(Cl)c1"
result = "inactive"

[[record]]
compound = "CCOC(=O)C(F)(F)F"
result = "inactive"

[[record]]
compound = "OC1CCCCC1c1ccccc1 (configuration not stated)"
result = "inactive"


Item: O=C(O)C1(C(=O)Nc2ccc(Cl)cc2Cl)CC1 | Potency: inactive

Item: CCN1CCN(C(=O)N[C@@H](C(=O)N[C@@H]2C(=O)N3C(C(=O)O)=C(CSc4nnnn4C)CS[C@H]23)c2ccc(O)cc2)C(=O)C1=O | Potency: inactive

The measured values listed here are drawn from PubChem BioAssay (Tox21).
